self-cleavage reference
B1: CPEB3 Ribozyme (parent)
chain: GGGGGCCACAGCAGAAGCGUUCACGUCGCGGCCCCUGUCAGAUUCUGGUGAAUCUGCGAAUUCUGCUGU

Variants of: B1
Experiment Summary: self-cleavage, relative activity (ratio to wild type); higher = more cleavage; co-transcriptional
A bare number is all that is needed in reply.

Example cases with answers are listed next.
Sequence Change	self-cleavage
A40U A52C	0.561
A10G U44G	0.71
G30C G65A	0.459
U46G G48C	0.994
G2U U62A	0.0777

I'd like to know its self-cleavage. The variant in question is G1A G48C
0.142

What do you have for A13G C66A ?
0.295

Repeat with C27U U62G
0.276

Another variant to check: U20C G56U
0.127
